targetOrTestSystem: ATP-sensitive inward rectifier potassium channel 1 (Homo sapiens)
experimentDescription: ROMK potassium channel modulators, primary screen, cell-based, thallium flux, MLSMR library (AID 1918);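 further: B-score of the F/F0 ratio slope over 7 to 12 s after thallium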
cond: Tet-inducible ROMK, thallium flux fluorescence; at 10 µM; actives lie on both sides
The campaign covered roughly 130,000 compounds. About 2,500 (1.9%) were called active. The list comes from a sample in which actives are over-represented; it also holds close analogues and randomly drawn compounds.
# B-score annotations
Provide a numeric answer; units are not to be included.

1) COc1ccc(CC(=O)Nc2cc(S(=O)(=O)N3CCCCC3)ccc2N2CCN(C)CC2)cc1 | 0.269

Given the compound Cc1ccc(C(=O)OC2CCCN(C)C2)cc1 (stereo not given) , what is its reported B-score? 0.17

Given the compound CCOC(=O)Cn1c(N)c(C(=O)OC)sc1=S , what is its reported B-score? -0.216

Given the compound CCOC(=O)c1sc(=S)n2c1[nH]c(=O)c1ccc(C(=O)OC)cc12 , what is its reported B-score? 6.64

Given the compound Cc1nc(NCCN)c(C#N)c2c1COC(C)(C)C2 , what is its reported B-score? 0.0226

Given the compound C=C(C)C1CC=C(C)/C(=N/NC(=O)CCCNc2cccc(C)c2)C1 (stereo not given) , what is its reported B-score? 1.1

Given the compound CN1CCN(c2ccc(S(=O)(=O)N3CCCCC3)cc2NC(=O)Cc2ccccc2F)CC1 , what is its reported B-score? -4.06

Given the compound Cc1cc(/C=C2/C(=N)N3C(=NC2=O)SN=C3S(C)(=O)=O)c(C)n1-c1ccccc1 , what is its reported B-score? 1.2

Given the compound CCOC(=O)c1sc(=S)n(-c2cccc(OC)c2)c1N , what is its reported B-score? -0.158

Given the compound CCS(=O)(=O)C1=NSC2=NC(=O)/C(=C\c3cc(C)n(-c4cccc(OC)c4)c3C)C(=N)N21 , what is its reported B-score? 1.02

---

# B-score annotations
targetOrTestSystem: ATP-sensitive inward rectifier potassium channel 1 (Homo sapiens) (UniProt P48048)
Sequence (P48048 whole entry, looked up): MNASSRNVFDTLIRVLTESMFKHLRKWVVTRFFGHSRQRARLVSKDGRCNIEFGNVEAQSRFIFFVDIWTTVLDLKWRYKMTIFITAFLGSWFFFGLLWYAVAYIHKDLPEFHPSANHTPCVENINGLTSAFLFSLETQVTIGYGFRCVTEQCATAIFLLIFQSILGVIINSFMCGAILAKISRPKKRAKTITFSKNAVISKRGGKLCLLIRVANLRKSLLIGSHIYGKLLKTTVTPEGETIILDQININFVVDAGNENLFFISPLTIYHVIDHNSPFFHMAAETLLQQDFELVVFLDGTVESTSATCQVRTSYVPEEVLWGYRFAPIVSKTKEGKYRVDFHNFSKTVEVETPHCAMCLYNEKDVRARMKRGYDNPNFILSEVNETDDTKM
experimentDescription: ROMK potassium channel modulators, primary screen, cell-based, thallium flux, MLSMR library (AID 1918);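 further: B-score of the F/F0 ratio slope over 7 to 12 s after thallium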
cond: Tet-inducible ROMK, thallium flux fluorescence; at 10 µM; actives lie on both sides
Out of some 130,000 compounds screened, about 2,500 (1.9%) were called active. The entries come from a sample that favours actives as a whole.
Provide a numeric answer; units are not to be included.

Give recorded B-score with ATP-sensitive inward rectifier potassium channel 1 (Homo sapiens) (UniProt P48048) for the following compound: O=C(CSc1nnnn1-c1ccc(O)cc1)N1N=C(c2ccc3ccccc3c2)CC1c1ccccc1 (stereo not given) 0.13

---

# B-score annotations
targetOrTestSystem: ATP-sensitive inward rectifier potassium channel 1 (Homo sapiens)
experimentDescription: ROMK potassium channel modulators, primary screen, cell-based, thallium flux, MLSMR library (AID 1918);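 further: B-score of the F/F0 ratio slope over 7 to 12 s after thallium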
cond: Tet-inducible ROMK, thallium flux fluorescence; at 10 µM; actives lie on both sides
The whole screen tested about 130,000 compounds, of which about 2,500 (1.9%) were called active. The sample as a whole holds a higher share of actives than the screen did.
Provide a numeric answer; units are not to be included.

1) CN(C)c1ccc2c(=O)[nH][nH]c(=O)c2c1 | 0.291
2) CC(=O)NC(Cc1ccc(F)c(F)c1)C(=O)NC1CCN(C(=O)c2ccc(C)cc2)CC1 (stereo unspecified) | -0.484
3) CN(C)c1nc(-c2cccnc2)nc(-c2ccc(Cl)cc2)c1C#N | -1.03
4) O=C(CN1CCC(O)(c2ccccc2)CC1)Nc1ccc2c(c1)OCCO2 | 0.414
5) Cc1ccc(C(=O)O)cc1NC(=O)c1ccc(Cn2nc(C)c(Cl)c2C)o1 | -0.188

Given the compound Cc1ccc(C(=O)C[n+]2cc(-c3ccccc3)n3c2CCCCC3)cc1 , what is its reported B-score? -3.3

Given the compound Cc1ccc2nc3n(c(=O)c2c1)CCC3 , what is its reported B-score? 0.127

Given the compound Cc1ccc2c(=O)oc(N(C)C)nc2c1 , what is its reported B-score? 2.36

Given the compound Cc1ccc(C(=O)N2CCCC(c3ccccc3)=N2)cc1 , what is its reported B-score? -0.95

Given the compound CC(C)CCN1CCN(C/C=C/c2ccco2)CC1CCO (stereo unspecified) , what is its reported B-score? 0.0943

Given the compound O=C(N/N=C/c1ccc(OCC2COCCO2)cc1)c1ccc(Br)cc1 (stereo unspecified) , what is its reported B-score? 0.0877

---

targetOrTestSystem: ATP-sensitive inward rectifier potassium channel 1 (Homo sapiens) (UniProt P48048)
experimentDescription: ROMK potassium channel modulators, primary screen, cell-based, thallium flux, MLSMR library (AID 1918);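 further: B-score of the F/F0 ratio slope over 7 to 12 s after thallium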
cond: Tet-inducible ROMK, thallium flux fluorescence; at 10 µM; actives lie on both sides
The whole screen tested about 130,000 compounds, of which about 2,500 (1.9%) were called active. Many of the other results were omitted from the sample, so actives are more common in it than they were.
# B-score annotations
Provide a numeric answer; units are not to be included.

Previously resolved entries follow.
1. COc1ccc(/C=N/S(=O)(=O)c2ccccc2)cc1OC | -0.975
2. CNC(=S)NNC(=O)c1cccn(Cc2ccccc2)c1=O | 0.643
3. CCOC(=O)C(C)Oc1cccc2c(=O)n(CC(=O)NCCc3ccc(OC)c(OC)c3)ccc12 (stereo not drawn) | -0.831
4. O=C(CN(C(=O)c1csnn1)c1cccc(F)c1)NCc1ccc(F)cc1 | 0.442
5. COc1ccc(S(=O)(=O)N2CCCCCC2)cc1C(=O)OCC(=O)Nc1cc(C)on1 | 0.559

Given the molecule COc1ccc(CC(=O)N[C@@H](CCSC)c2nc3ccccc3[nH]2)cc1 , what is its reported B-score? -1.58

Given the molecule Oc1ccc2ccccc2c1N=Nc1nccs1 , what is its reported B-score? 2.22

Given the molecule CC(=O)Nc1ccc(S(=O)(=O)N(C)c2ccc(OCC(=O)OCC(=O)N3CCCCC3)cc2)cc1 , what is its reported B-score? 0.712

Given the molecule Nc1ncnc(Nc2cccc(Cl)c2Cl)n1 , what is its reported B-score? -0.357

Given the molecule O=C(Nc1cccc([N+](=O)[O-])c1)Nc1ccc(Cl)cn1 , what is its reported B-score? 0.868

Given the molecule CN(C)c1ccc(C=C2C(=O)OC3(CCCC3)OC2=O)cc1 , what is its reported B-score? -4.03

Given the molecule CC1=NN(Cc2ccccc2)C(=O)/C1=C/c1ccc(N(C)C)cc1 , what is its reported B-score? -0.804

Given the molecule O=C(O)c1ccc(NC(=O)c2cccs2)cc1 , what is its reported B-score? -0.729

Given the molecule CCn1c(/C=C/Nc2ccccc2)[n+](CC)c2ccc(C(=O)OCC(F)(F)F)cc21 , what is its reported B-score? -3.51

---

targetOrTestSystem: ATP-sensitive inward rectifier potassium channel 1 (Homo sapiens) (UniProt P48048)
experimentDescription: ROMK potassium channel modulators, primary screen, cell-based, thallium flux, MLSMR library (AID 1918);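 further: B-score of the F/F0 ratio slope over 7 to 12 s after thallium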
cond: Tet-inducible ROMK, thallium flux fluorescence; at 10 µM; actives lie on both sides
In all, about 130,000 compounds went through this assay and about 2,500 (1.9%) were called active.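 How the source made its calls: active means signal ratio slope over the read window, or its plate-corrected B-score, at least 3 SD from the plate mean, either direction; inactive means the rest.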 The sample as a whole holds a higher share of actives than the screen did.
Field 'call' accepts active, inactive

1. O=c1c2c(nc3cc(-c4cccc(Cl)c4)[nH]n13)CCCC2 | inactive
2. O=C(c1ccc2c(c1)C(=O)N(c1ccc(Cl)cc1)C2=O)N1CCN(c2ccccn2)CC1 | inactive
3. O=C(/C=C/c1ccc(N2CCOCC2)cc1)c1ccccc1 | active
4. CSc1nc2nc3c(c(=O)n2[nH]1)CCC3 | active
5. CN(C)CC(O)COc1ccc(C(C)(C)c2ccc(OCC(O)CN(C)C)cc2)cc1 (stereo unspecified) | inactive
6. Cc1cccn2c(=O)c3cc(C(=O)N4COCC4(C)C)n(C)c3nc12 | active
7. Cc1[nH]c2ccccc2c1/C=C(/C#N)C(=O)NC(C)C | inactive
8. O=C(/C=C/c1c(F)cccc1Cl)Nc1nn[nH]n1 | inactive
9. O=c1c2c(nc3nc[nH]n13)CCC2 | inactive
10. O=C(NC(=O)N1CCOCC1)c1ccccc1 | inactive

What did the test return for Cc1cccn2c(=O)c3cc(C#N)c(=O)n(CCCN4CCOCC4)c3nc12 ? inactive

---

targetOrTestSystem: ATP-sensitive inward rectifier potassium channel 1 (Homo sapiens) (UniProt P48048)
experimentDescription: ROMK potassium channel modulators, primary screen, cell-based, thallium flux, MLSMR library (AID 1918);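 further: B-score of the F/F0 ratio slope over 7 to 12 s after thallium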
cond: Tet-inducible ROMK, thallium flux fluorescence; at 10 µM; actives lie on both sides
Screen size: about 130,000 compounds; about 2,500 (1.9%) were called active. Shown is part of a subset that was picked to be rich in actives.
Criterion: B-score meeting or surpassing -0.7. Met: Yes. Not met: No.

Some solved entries appear below for comparison.
1. CCOC(=O)NC(=O)/C(C#N)=C\c1ccccc1 | No
2. COCCNC(=O)/C(C#N)=C/c1nc(N(C)C)n(-c2ccc(F)cc2)c1Cl | Yes
3. C=CCc1ccc(OCC(O)CN2CCN(Cc3ccccc3)CC2)c(OC)c1 (stereo unspecified) | No
4. COCCNC(=O)/C(C#N)=C/c1cccc(OCc2ccccc2)c1 | No
5. CN(C)S(=O)(=O)c1ccc(NC(=O)N2CCOCC2)cc1 | Yes

State whether the measured B-score reaches -0.7, counting equality as reaching it, for CCN(CC)S(=O)(=O)c1ccc(Cl)c(NC(=O)c2ccncc2)c1 Yes

State whether the measured B-score reaches -0.7, counting equality as reaching it, for CC(NC(=O)CC1SC(N)=NC1=O)c1ccccc1 (stereo unspecified) Yes

State whether the measured B-score reaches -0.7, counting equality as reaching it, for CC(C)OC(=O)CN1C(=O)C(=O)c2ccccc21 Yes

State whether the measured B-score reaches -0.7, counting equality as reaching it, for O=C(Nc1ccccc1Cl)/C(Cl)=C(\Cl)S(=O)c1ccccc1 (stereo unspecified) No

State whether the measured B-score reaches -0.7, counting equality as reaching it, for CS(=O)(=O)c1ccc(Cl)c(NC(=O)Nc2ccccc2)c1 No
